Target: human aromatase (Homo sapiens)
Construct: The enzyme preparation was used without further purification; from tissue; host or cells: human placenta, microsomal fraction (100000×g precipitate)
Sequence (P11511 whole entry): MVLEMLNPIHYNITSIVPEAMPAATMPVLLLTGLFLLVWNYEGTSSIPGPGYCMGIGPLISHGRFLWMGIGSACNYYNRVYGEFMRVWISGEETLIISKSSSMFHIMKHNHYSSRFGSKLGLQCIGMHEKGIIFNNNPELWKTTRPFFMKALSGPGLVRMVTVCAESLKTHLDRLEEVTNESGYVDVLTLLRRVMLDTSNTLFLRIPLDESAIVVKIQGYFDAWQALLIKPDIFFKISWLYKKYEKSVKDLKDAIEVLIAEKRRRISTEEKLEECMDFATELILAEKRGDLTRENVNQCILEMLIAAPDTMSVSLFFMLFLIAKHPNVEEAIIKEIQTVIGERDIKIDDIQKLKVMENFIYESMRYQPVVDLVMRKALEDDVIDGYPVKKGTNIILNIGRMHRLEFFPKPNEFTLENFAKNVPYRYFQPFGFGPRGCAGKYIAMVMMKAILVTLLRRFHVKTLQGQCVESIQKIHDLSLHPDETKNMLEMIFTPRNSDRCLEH
Experiment: In vitro inhibition of human placental aromatase (3H2O release from 1,2[3H]-androstene-3,17-dione)
Assay type: biochemical
Conditions: 40 min; read-out: AROMATASE IC-10
metric: IC10 (µM)

Cc1ccccc1C(O)(CCc1c[nH]cn1)c1ccccc1C [Compound 6] = 15
OC(CCc1c[nH]cn1)(c1ccc(Cl)cc1)c1ccc(Cl)cc1 [Compound 2] = 4
Clc1ccc(C(=CCc2c[nH]cn2)c2ccc(Cl)cc2)cc1 [Compound 7] = 2

I = Cc1cccc(C(=CCc2c[nH]cn2)c2cccc(C)c2)c1 [Compound 12]
II = Cc1ccccc1C(=CCc1c[nH]cn1)c1ccccc1C [Compound 8]
III = Cc1cccc(C)c1CCC(O)(CCc1c[nH]cn1)CCc1c(C)cccc1C [Compound 1]
IV = OC(CCc1c[nH]cn1)(c1ccccc1)c1ccccc1 [Compound 3]
stdin: Put the entries in order of IC10, starting with the largest number. // ordering of labels required in reply
stdout: III, IV, II, I
